- Subject of test: T1, hGP130-his (Sino Biological, Catalog# 10974) (human, UniProt P40189 23-619)
- T1 construct: Bought reagent; also called extracellular domain of gp130; not shown: C-terminal poly-His tag
- T1 sequence: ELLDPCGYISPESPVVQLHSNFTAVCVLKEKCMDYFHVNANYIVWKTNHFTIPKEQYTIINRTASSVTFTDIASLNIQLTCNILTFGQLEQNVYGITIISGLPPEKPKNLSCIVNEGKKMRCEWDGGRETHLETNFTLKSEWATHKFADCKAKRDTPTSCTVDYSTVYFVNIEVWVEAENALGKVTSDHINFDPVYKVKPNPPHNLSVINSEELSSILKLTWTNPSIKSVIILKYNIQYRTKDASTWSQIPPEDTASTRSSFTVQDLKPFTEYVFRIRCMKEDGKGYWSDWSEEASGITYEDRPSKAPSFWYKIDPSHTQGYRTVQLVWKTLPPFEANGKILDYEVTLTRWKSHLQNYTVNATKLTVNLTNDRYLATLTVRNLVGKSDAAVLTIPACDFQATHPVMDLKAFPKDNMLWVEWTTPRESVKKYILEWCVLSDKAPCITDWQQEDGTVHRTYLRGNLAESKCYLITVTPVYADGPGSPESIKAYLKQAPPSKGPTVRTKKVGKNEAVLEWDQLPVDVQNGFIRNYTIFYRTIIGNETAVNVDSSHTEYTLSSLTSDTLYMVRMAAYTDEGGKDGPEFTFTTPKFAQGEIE
- Test summary: SPR (Biacore T200), Mono-Fc VHH captured on Protein A chip, hGP130-his in solution, 1:1 fit
Parameter: kon. Scope: all listed entries.
Number in M⁻¹ s⁻¹, nothing else.

Some solved cases for reference:
DR596 Mono-Fc VHH (Fc fusion, Mono-Fc format is not described further; also called anti-hGP130 Mono-Fc VHH; not shown: Fc part of the Mono-Fc format) QVQLQESGGGLVQPGGSLRLSCTASGLTFDDSVMGWFRQAPGKGREAVSCISSSGANAFYADSVKGRFTISRDNAKNTLYLQMNSLKPEDTATYYCKRGHACAGYYPIPYDDYWGQGTQVTVSS: 190000
DR592 Mono-Fc VHH (Fc fusion, Mono-Fc format is not described further; also called anti-hGP130 Mono-Fc VHH; not shown: Fc part of the Mono-Fc format) QVQLQESGGGSVQAGGSLRLSCTAPGFTSNSCGMDWYRQAPGKEREFVSSISTDGTTGYADSVKGRFTISKDKAKDTVYLQMNSLKPEDTGMYSCKTKDGTIATMELCDFGYWGQGTQVTVSS: 160000
DR595 Mono-Fc VHH (Fc fusion, Mono-Fc format is not described further; also called anti-hGP130 Mono-Fc VHH; not shown: Fc part of the Mono-Fc format) QVQLQESGGGSVQAGGSLTLSCAASEYAYSTCNMGWYRQAPGKERELVSAFISDGSTYYADSVKGRFTITRDNAKNTVYLQMNSLKPEDTAIYYCSANCYRRLRNYWGQGTQVTVSS: 180000

Input line: Reported kon, binder DR593 Mono-Fc VHH (Fc fusion, Mono-Fc format is not described further; also called anti-hGP130 Mono-Fc VHH; not shown: Fc part of the Mono-Fc format) QVQLQESGGGSVQAGGSLRLSCAASGYPYSNGYMGWFRQAPGKEREGVATIYTGDGRTYYADSVKGRFTISRDNAKNTVDLQMSSLKPEDTAMYYCAARAAPLYSSGSPLTRARYNVWGQGTQVTVSS : ____
Output line: 250000

Input line: I would be grateful if you could share the reported kon for DR594 Mono-Fc VHH (Fc fusion, Mono-Fc format is not described further; also called anti-hGP130 Mono-Fc VHH; not shown: Fc part of the Mono-Fc format) QVQLQESGGGSVQAGGSLRLSCVASASTYCTYDMHWYRQAPGKGREFVSAIDSDGTTRYADSVKGRFTISQGTAKNTVYLQMNSLQPEDTAMYYCKTVCVVGSRWSDYWGQGTQVTVSS .
Output line: 160000

Input line: What value of measured kon is listed for DR591 Mono-Fc VHH (Fc fusion, Mono-Fc format is not described further; also called anti-hGP130 Mono-Fc VHH; not shown: Fc part of the Mono-Fc format) QVQLQESGGGSVQAGGSLRLSCTASGAIASGYIDSRWCMAWFRQAPGKEREGVAAIWPGGGLTVYADSVKGRFTISRDHAKNTLYLQMNNLKPEDTAMYYCAAGSPRMCPSLEFGFDYWGQGTQVTVSS ?
Output line: 59000
